Assay: protein stability index of a GFP-peptide fusion (yeast GPS) (PSI 1-4); higher = more stable; sorted into four equal gates, so the index is relative within each strain
Settings: doa10∆
Recorded protein stability index, one value per entry.
// no unit string in output, number only

Would you mind telling me what protein stability index value was observed for LKKDIESLRGILHVRAQ [SRP72] ?
1.9

----------
Experiment: protein stability index of a GFP-peptide fusion (yeast GPS) (PSI 1-4); higher = more stable; sorted into four equal gates, so the index is relative within each strain
Settings: san1∆
Recorded protein stability index, one value per entry.

Below are worked cases with known answers.
* KENFILDSLMKTTRLLL [YJL039C/NUP192] | 1.42
* GSGKSNMMDAISFVLGV [SMC1] | 3.24
* NNDKREIQEELERFNKR [SMC1] | 3.4
* PEGTLSGGSRNTSESLL [SMC2] | 3.44
* FNVDDVLKFTFTGEKPI [MED8] | 3.29
* MGNTKVHCRISCQIAQP [RRP45] | 1.56
* DNKEKDFELEISWCSLS [PRE10] | 2.87
* SSPLGFEETKLSTTPTK [SIR4] | 2.6

Would you mind telling me what protein stability index value was observed for DEESLVKYMPEQKITEI [RPO21] ?
2.99

Moving on to the next sequence: LSFGTATSDNKTTNTTP [YJL041W/NSP1]
2.24

Moving on to the next sequence: SSIVAIDWASPEYGRII [YGL100W/SEH1]
2.82

Moving on to the next sequence: KRLLYTRRFVNVTLVNG [RPS30A]
1.62

----------
Recorded protein stability index, one value per entry.
Assay: protein stability index of a GFP-peptide fusion (yeast GPS) (PSI 1-4); higher = more stable; sorted into four equal gates, so the index is relative within each strain
Details: doa10∆
// no unit string in output, number only

Below are worked cases with known answers.
- RLTGSLLAHKVADEEAN [RPC37]: 1.22
- FGKTVKDGPFYTGSMSL [RPC31]: 2.92
- ILNAKYTKETYQSRGID [RPN6]: 2.96
- VVERHLEDGDVVLFNRQ [RPO31]: 3.41

Would you mind telling me what protein stability index value was observed for EENSSSNGNNLPLNKPR [RGR1] ?
3.24

Moving on to the next sequence: MVGLVDPDKLKPNDLVG [RPT5]
2.87

Moving on to the next sequence: FNQFVDYTLQDIICEDS [RPB2]
2.72

Moving on to the next sequence: QAIAKNNPQVVNAITVA [SNF5]
1.85

Moving on to the next sequence: VAADGKLVTYIVKFKQK [YLR335W/NUP2]
2.17

----------
Assay: protein stability index of a GFP-peptide fusion (yeast GPS) (PSI 1-4); higher = more stable; sorted into four equal gates, so the index is relative within each strain
Settings: doa10∆
Decision: protein stability index compared against 3; not below it gives fulfilled, below it gives not fulfilled.

Sample answers from the record:
- EQIDENWSKEDLQKLLK [SWI3]: fulfilled
- AECISLICSIGLHSSEY [ECM29]: not fulfilled
- LYSVKFAPAHLGLKLAC [YGL100W/SEH1]: not fulfilled
- SLSDELNLDEIVACELI [YJL039C/NUP192]: not fulfilled
- FENCYLEGNDIHALAAK [FAS1]: not fulfilled
- KQTADWLAEKFQKETNM [PRP28]: not fulfilled
- VSPAFRVQVGDIVTVGQ [RPS11A]: not fulfilled
- QLDAYGEKKVGSNGELF [SWP82]: fulfilled

Decide: is the reported value of protein stability index for AQLDGRIGVLQARMMQQ [NSL1] equal to or greater than 3?
not fulfilled

Moving on to the next sequence: AMLINLILRDFLNNGEV [RPN3]
not fulfilled

----------
Experiment: protein stability index of a GFP-peptide fusion (yeast GPS) (PSI 1-4); higher = more stable; sorted into four equal gates, so the index is relative within each strain
Settings: doa10∆
Class key for protein stability index values: Low = under 2, Medium = from 2 up to 3, High = 3 and over

Sample answers from the record:
- ELISLRKILESSNIVNE [YIL149C/MLP2]: Medium
- ALTKFEASQVTEKQRKK [RPL35A]: High
- SLHPLFEQFEKFYEEKL [RPN9]: Medium
- YLKDNITLLTRQRELLI [GRR1]: Medium
- KKIVDSKKLNLKIHQSH [YMR129W/POM152]: Medium

Where would PSLEKSSFTFGSTTIEK [YLR335W/NUP2] land among the classes by reported protein stability index?
Medium

Moving on to the next sequence: REIQIDAVLKIFSFHQD [SRB8]
High

Moving on to the next sequence: GDKVVVTIWYRAPELLL [SSN3]
Low

Moving on to the next sequence: LQLASLQQKQRDLILKK [SMC3]
Medium

Moving on to the next sequence: YSPTSPSYSPTSPGYSP [RPO21]
Medium

Moving on to the next sequence: SLEDPQVRKKQIETINF [YDL116W/NUP84]
Low

----------
Assay: protein stability index of a GFP-peptide fusion (yeast GPS) (PSI 1-4); higher = more stable; sorted into four equal gates, so the index is relative within each strain
Details: pdr5∆
Recorded protein stability index, one value per entry.

Below are worked cases with known answers.
- SHHLKADTIDHDELIDS [YGL172W/NUP49]: 3.25
- HNGAPHHAIEEAESLLQ [RPO21]: 3.39
- PALIRPGRIDRKILFEN [RPT2]: 2.21
- LESYKTQAKKLYHHTTK [SRP72]: 2.73
- ASTINGASIIQVIFEIF [YML103C/NUP188]: 1.9
- LAPSKHQPITSEQKMKE [SIR4]: 2.37

Would you mind telling me what protein stability index value was observed for MKYTQYPNSSKLKRNSD [LIN1] ?
3.03

Moving on to the next sequence: EAESLLQFHVATYMDND [RPO21]
2.7

Moving on to the next sequence: TCSSDQHIKVFKLDKDT [YGL100W/SEH1]
3.07

----------
Recorded protein stability index, one value per entry.
Assay: protein stability index of a GFP-peptide fusion (yeast GPS) (PSI 1-4); higher = more stable; sorted into four equal gates, so the index is relative within each strain
Conditions: ubr1∆
// no unit string in output, number only

* TKAIQGCSKICDLSSKF [YCS4] | 3.06
* FLKVKGLVKQHLDSFNY [RET1] | 2.94

Would you mind telling me what protein stability index value was observed for RIATEASKLAAYNKKST [HTB1] ?
2.94

Moving on to the next sequence: IYISNLVRSIIAFDDLI [RPN8]
1.27

Moving on to the next sequence: KNTSSMDFLNSMENTPK [GAL11]
3.02

----------
Recorded protein stability index, one value per entry.
Test: protein stability index of a GFP-peptide fusion (yeast GPS) (PSI 1-4); higher = more stable; sorted into four equal gates, so the index is relative within each strain
Settings: pdr5∆
// no unit string in output, number only

Would you mind telling me what protein stability index value was observed for KIEGVATPQEAQFYLGK [RPL33B] ?
3.03

Moving on to the next sequence: LELPLCPYCYKKRREYF [SIR2]
2.06

Moving on to the next sequence: NGVNVQIDQLNRLLPNL [GRR1]
3.07

Moving on to the next sequence: KPYKQVKQIAPAELEGL [FAS2]
2.14

Moving on to the next sequence: MVGLVDPDKLKPNDLVG [RPT5]
2.94

Moving on to the next sequence: NTSAKNKNGENKKIGKR [SIR4]
3.19

Moving on to the next sequence: IHSLIPVAKWFVKFITY [SIN4]
2.52

Moving on to the next sequence: SAINQYNRRQDKKNKRL [SNF2]
3.34

Moving on to the next sequence: YLINGKRFKRKDNAKIS [SRP68]
1.58

----------
Experiment: protein stability index of a GFP-peptide fusion (yeast GPS) (PSI 1-4); higher = more stable; sorted into four equal gates, so the index is relative within each strain
Conditions: ubr1∆
Recorded protein stability index, one value per entry.
// no unit string in output, number only

• EDEFIVQHDQILVMETS [SWP82] = 2.98
• NDRKQTTVSNDLENSPL [SSN2] = 3.08
• GVDAMSVDDLKKLNKNK [RPL1A] = 3.73

Would you mind telling me what protein stability index value was observed for TLIVVPFNQGSKQDVEA [FAS2] ?
3.3

----------
Recorded protein stability index, one value per entry.
Assay: protein stability index of a GFP-peptide fusion (yeast GPS) (PSI 1-4); higher = more stable; sorted into four equal gates, so the index is relative within each strain
Conditions: pdr5∆

Below are worked cases with known answers.
• IAAERAARKAANKEKRA [RPL7B] = 3.59
• AYGVLDSNYKWDLSVED [PRE2] = 2.94
• LDPALLRPGRIDRKVEF [RPT1] = 3.07
• ENKTKKDNDKNLKFLKN [SRB4] = 3.4
• PVDVDFNLDLDDIVSHQ [REC8] = 3.4
• GEGPFTVKFKHMDYDGN [YMR129W/POM152] = 2.86

Would you mind telling me what protein stability index value was observed for NVGKPDQSIASGNTNGA [YOR098C/NUP1] ?
2.09

Moving on to the next sequence: KKSKKKWSKKSMKDRAQ [RPS25A]
3.37

Moving on to the next sequence: YRKTEGIFEKAKAKAVT [YMR153W/NUP53]
2.54

Moving on to the next sequence: LNEMLNTRKNMSISLES [DIS3]
2.91

Moving on to the next sequence: EEAKEEVTEEQAEATEW [RPS0A]
3.49

Moving on to the next sequence: VANSPNKRLDVIDGKLP [YDL088C/ASM4]
2.8

Moving on to the next sequence: DQQSPWLLRLELDRAAM [RPO21]
1.83

Moving on to the next sequence: TAKETKMLMNLHKEQWQ [RPN11]
3.36

Reference source for all entries: the supplement of paper PMC9732359
